The following compounds are listed with their measured Mode values.
test system: Streptococcus spp.; assay: Broth microdilution MIC, 54 clinical isolates; format: cell-based; settings: modal MIC; 54 Streptococcus spp. clinical isolates
Reply with just the number (in µg/mL).

| record smiles | system | measurement units | recorded measurement |
| --- | --- | --- | --- |
| CN[C@H](CC(C)C)C(=O)N[C@H]1C(=O)N[C@@H](CC(N)=O)C(=O)N[C@H]2C(=O)N[C@H]3C(=O)N[C@H](C(=O)N[C@H](C(=O)O)c4cc(O)cc(O)c4-c4cc3ccc4O)[C@H](O)c3ccc(c(Cl)c3)Oc3cc2cc(c3O[C@@H]2O[C@H](CO)[C@@H](O)[C@H](O)[C@H]2O[C@H]2C[C@](C)(N)[C@H](O)[C@H](C)O2)Oc2ccc(cc2Cl)[C@H]1O | Streptococcus spp. | µg/mL | 0.25 |

Requested read-out: Mode. Entry: C[C@@H](O)[C@H]1C(=O)N2C(C(=O)O)=C(S[C@@H]3CN[C@H](C(=O)N(C)C)C3)[C@H](C)[C@H]12
0.03

====

tested on: Proteus mirabilis; test: Broth microdilution MIC, 50 clinical isolates; type: cell-based
quantity kind: Mode (µg/mL)
Answer with a number only, understood to be in µg/mL.

Below, 3 compounds whose answers are already recorded.
| record smiles | Mode [µg/mL] |
| --- | --- |
| CO/N=C(\C(=O)N[C@@H]1C(=O)N2C(C(=O)O)=C(CSc3nc(=O)c(=O)[nH]n3C)CS[C@H]12)c1csc(N)n1 | 0.004 |
| C[C@@H](O)[C@H]1C(=O)N2C(C(=O)O)=C(S[C@@H]3CN[C@H](C(=O)N(C)C)C3)[C@H](C)[C@H]12 | 0.06 |
| COc1c(N2C[C@@H]3CCCN[C@@H]3C2)c(F)cc2c(=O)c(C(=O)O)cn(C3CC3)c12 | 0.25 |

In the following, a different compound is considered.
Quick check: Mode of CO[C@H]1/C=C/O[C@@]2(C)Oc3c(C)c(O)c4c(O)c(c5c(nc6cc(C)ccn65)c4c3C2=O)NC(=O)/C(C)=C\C=C\[C@H](C)[C@H](O)[C@@H](C)[C@@H](O)[C@@H](C)[C@H](OC(C)=O)[C@@H]1C ?
4

====

system: Staphylococcus aureus clinical isolates; test: MIC distribution against clinical isolates; format: cell-based; conditions: MIC 2 μg/mL; 50 S. aureus isolates
quantity kind: Number of test isolates at MIC
Give the figure by itself; no unit, no explanation.

Answered cases to consult:
| record smiles | recorded measurement |
| --- | --- |
| CO/N=C(\C(=O)N[C@@H]1C(=O)N2C(C(=O)O)=C(CSc3nc(=O)c(=O)[nH]n3C)CS[C@H]12)c1csc(N)n1 | 3 |
| COc1c(N2C[C@@H]3CCCN[C@@H]3C2)c(F)cc2c(=O)c(C(=O)O)cn(C3CC3)c12 | 5 |
| C[C@@H](O)[C@H]1C(=O)N2C(C(=O)O)=C(S[C@@H]3CN[C@H](C(=O)N(C)C)C3)[C@H](C)[C@H]12 | 2 |

Here's the next entry for you.
Report Number of test isolates at MIC for Cc1onc(-c2ccccc2)c1C(=O)N[C@@H]1C(=O)N2[C@@H]1SC(C)(C)[C@@H]2C(=O)O please.
1
